test system: CYR61 gene expression; assay: CYR61 gene expression in ARPE-19/HPV16 cells treated for 24 hours, Affymetrix probe sets; assay type: cell-based, human; conditions: probe 210764_s_at, 10 uM
Where a name gives a salt, the structure may show the parent alone.
Quantity kind: Rank
In your answer, state the number alone without any accompanying words.

Given the entry COc1cccc2c1C(=O)c1c(O)c3c(c(O)c1C2=O)C[C@@](O)(C(=O)CO)C[C@@H]3O[C@H]1C[C@H](N)[C@H](O)[C@H](C)O1 [Doxorubicin HCl] , report its measured Rank. 22272

For COc1cccc2c1C(=O)c1c(O)c3c(c(O)c1C2=O)C[C@@](O)(C(C)=O)C[C@@H]3O[C@H]1C[C@H](N)[C@H](O)[C@H](C)O1 [Daunorubicin HCl] then? 22239

Do the same for "CCC(C)(C)C(=O)O[C@H]1C[C@@H](C)C=C2C=C[C@H](C)[C@H](CC[C@@H]3C[C@@H](O)CC(=O)O3)[C@H]21" please 22262

Quick one: CC(=O)[C@]1(O)Cc2c(O)c3c(c(O)c2[C@@H](O[C@H]2C[C@H](N)[C@H](O)[C@H](C)O2)C1)C(=O)c1ccccc1C3=O [Idarubicin HCl] 22267

Further, for "CC[C@H](C)C(=O)O[C@H]1C[C@@H](C)C=C2C=C[C@H](C)[C@H](CC[C@@H]3C[C@@H](O)CC(=O)O3)[C@H]21" ? 22264

The measurements presented in this section are drawn from patent US20220401464A1.
